# test_system: T1, human IL-2Rα (human, UniProt P01589 22-240, limits assumed)
# T1 construct: recombinant protein; also called hu IL-2R; human IL-2Ra
# T1 sequence: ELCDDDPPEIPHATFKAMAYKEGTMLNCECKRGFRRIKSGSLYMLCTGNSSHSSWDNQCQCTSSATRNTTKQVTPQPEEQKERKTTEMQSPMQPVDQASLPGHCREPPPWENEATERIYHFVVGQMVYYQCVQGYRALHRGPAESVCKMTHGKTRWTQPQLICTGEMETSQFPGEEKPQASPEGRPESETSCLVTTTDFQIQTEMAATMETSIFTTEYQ
# protocol_text: SPR, P.E. on immobilised antigen
measured_endpoint: koff
The reply must contain the numeric value and, after it, the unit.

FJ1427_P035MP05B07 (VHH, periplasmic extract; also called clone nr) VHH: QLQLVESGGGLVQAGGSLRLSCAASGLTFDGYAIGWFRQASGKEREGVSYINGRDGSTFYADSVKGRFIISSDNAKNTVDLQMNSLKPDDAAVYYCAVDRLGSRGAYVSSWWRSPDMDLWGKGTLVTVSS: 0.00195 s⁻¹

Problem: Report koff for FJ1427_P035MP01E07 (VHH, periplasmic extract; also called clone nr; 53) VHH: QVQLQESGGGLVQAGDSLRLSCAASGRSFRNYILAWYRQAPGKEREFLAAISWLEGTLYADSVEDRFTISRDNPKNTVHLQMDSLKPEDTAVYYCAADRGPVRPVLAPDVDYWGQGTQVTVSS please.
Result: 0.00159 s⁻¹

Problem: Report koff for FJ1427_P035MP01E02 (VHH, periplasmic extract; also called clone nr; 13) VHH: QVQLVESGGGLVQAGDSLRLSCAASGRSFRNYILAWYRQAPGKEREFLAAISWLDGTLYADSVEDRFTISRDNPKNTVHLQMDNLKPEDTAVYYCAADRGPVRPVLAPDVDYWGQGTQVTVSS please.
Result: 0.00128 s⁻¹

Problem: Report koff for FJ1427_P035MP01E11 (VHH, periplasmic extract; also called clone nr; 85) VHH: QVQLVESGGGLVQPGGSLRLSCAASGFTFSNNFMSWVRQAPGKGLEWVSTISYFGDSTRYAESVKGRFTISRDNEKNTLYLQMNNLKPEDTAVYYCAKATSYDSIRSGSRGRGTQVTVSS please.
Result: 0.000704 s⁻¹

Problem: Report koff for FJ1427_P035MP01H02 (VHH, periplasmic extract; also called clone nr; 16) VHH: QLQLVESGGGLVQAGDSLRLSCAASGRAFSRYAVGWFRMAPGKGREFVSAINSSGANTYVLDSVKGRFTISRDNDKNTAYLQMDSLQPEDTAVYWCAATSSSYSTYEANYNVWGQGTQVTVSS please.
Result: 0.00115 s⁻¹

Problem: Report koff for 9-MP05G01 (VHH, periplasmic extract; also called FJ1427_P035MP05G01) VHH: EVQLVESGGGLVQAGGSLRLSCAASGGSIYTYNMGWFRQAPGKEREFVAGTLWSGGDSVYADFAKGRFTLSRENAKNTLYLQMNSLKPEDTATYYCAIDPLSLTSDWRVDELSSWGKGTLVTVSS please.
Result: 0.000169 s⁻¹

Problem: Report koff for FJ1427_P035MP01D04 (VHH, periplasmic extract; also called clone nr; 28) VHH: QVQLVESGGGWVQPGDSLRLSCAASGRSFRNYVMGWFRQVPGKEREFLSVITWLGGTLDADSVADRFTISRDNSKNTVYLQMDSLKPEDTAVYYCAADRGPARYISASDVDYWGQGTQVTVSS please.
Result: 0.00295 s⁻¹

Problem: Report koff for FJ1427_P035MP01F08 (VHH, periplasmic extract; also called clone nr; 62) VHH: EVQLVESGGGWVQPGDSLRLSCAASGRSFRNYVMGWFRQVPGKEREFLSVITSLGGTLDADSVADRFTISRDNSKNTVYLQMDSLKPEDTAVYYCAADRGPARYISASDVDYWGQGTQVTVSS please.
Result: 0.00162 s⁻¹

Cited source: patent US20240409645A1
